ASSAY INFO: Murine microsomal stability
Type: in vitro ADME
EXPERIMENTAL PARAMETERS: mouse, pooled liver microsomes, pH 7.4
EXPERIMENTAL READOUT: half-life at 1 μM

Would you kindly share the measured half-life at 1 μM for CC(C)CN1CCN(c2ccc(Nc3ccnc4cc(Cl)ccc34)cc2)CC1 [Compound 45] ?
6.47 min
